Cited source for all entries: patent US20100190688A1

Biological target: BIR3-mediated Caspase-9 inhibition (UniProt Q9R0I6)
Construct: Nothing is printed for this assay
Assay: Caspase-9 rescue assay (relief of BIR3-mediated Caspase-9 inhibition)
Conditions: average EC50, substrate Ac-LEHD-amc, pH 6.5
pEC50: −log10 of the molar value.
PROPERTY_LABEL: pEC50

Below, each entry is followed by its recorded pEC50 result.
# MOLECULE, pEC50
measured = [
    ("CNC(C)C(=O)NC(C(=O)N1Cc2ccccc2CC1C(=O)NC(c1ccccc1)c1ccccc1)C(C)C (centres unmarked)", "5.00 to 6.00"),
    ("CNC(C)C(=O)NC(C(=O)N1Cc2ccccc2CC1C(=O)NC(Cc1ccccc1)Cc1ccccc1)C(C)C (centres unmarked)", "5.00 to 6.00"),
    ("CNC(C)C(=O)NC(C(=O)N1Cc2ccccc2CC1C(=O)NC1CCCc2ccccc21)C(C)C (centres unmarked)", "> 6.00"),
]

Batch request: pEC50 per item, same order as input.
1. CNC(C)C(=O)NC(C(=O)NC(CCCCNS(=O)(=O)c1ccc(OC)cc1)C(=O)NC1CCCc2ccccc21)C(C)C (centres unmarked)
2. CNC(C)C(=O)NC(C(=O)NC(CCCCNC(C)=O)C(=O)NC1CCCc2ccccc21)C(C)C (centres unmarked)
3. CNC(C)C(=O)NC(C(=O)N1CSCC1C(=O)NC1CCc2ccccc21)C(C)C (centres unmarked)
4. CN[C@@H](C)C(=O)N[C@H]1CCCC2CC[C@@H](C(=O)N[C@@H]3CCCc4ccccc43)N2C1=O (some centres unmarked)
5. CC(C)CNC(C)C(=O)NC(C(=O)N1CCCC1C(=O)NC1CCCc2ccccc21)C(C)(C)C (centres unmarked)

1. > 6.00
2. 5.00 to 6.00
3. > 6.00
4. > 6.00
5. 5.00 to 6.00
